# targetUnderTest: Dipeptidyl peptidase 4 (Homo sapiens)
# Sequence (P27487 whole entry): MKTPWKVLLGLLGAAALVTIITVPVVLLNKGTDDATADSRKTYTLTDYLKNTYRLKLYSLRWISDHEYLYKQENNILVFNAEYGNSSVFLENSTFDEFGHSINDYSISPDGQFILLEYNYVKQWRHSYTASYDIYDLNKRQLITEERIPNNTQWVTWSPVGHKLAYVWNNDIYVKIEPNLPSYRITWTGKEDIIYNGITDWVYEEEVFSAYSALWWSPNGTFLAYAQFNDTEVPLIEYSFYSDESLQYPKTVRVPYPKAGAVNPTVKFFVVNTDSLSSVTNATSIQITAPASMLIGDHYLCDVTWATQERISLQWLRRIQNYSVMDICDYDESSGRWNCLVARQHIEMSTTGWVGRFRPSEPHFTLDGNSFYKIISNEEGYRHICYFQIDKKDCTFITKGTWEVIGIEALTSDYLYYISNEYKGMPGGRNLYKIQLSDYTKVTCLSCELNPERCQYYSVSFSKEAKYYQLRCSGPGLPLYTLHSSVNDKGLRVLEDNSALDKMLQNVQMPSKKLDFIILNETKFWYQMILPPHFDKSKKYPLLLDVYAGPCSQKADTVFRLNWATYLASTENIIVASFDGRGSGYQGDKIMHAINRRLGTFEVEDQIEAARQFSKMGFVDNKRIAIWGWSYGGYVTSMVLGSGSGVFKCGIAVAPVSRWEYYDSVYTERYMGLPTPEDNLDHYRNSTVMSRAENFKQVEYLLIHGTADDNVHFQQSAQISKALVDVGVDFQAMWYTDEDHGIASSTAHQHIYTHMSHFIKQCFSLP
Hi! Could you tag entries with IC50 below 9 nM as class 1, and those at or above as class 0? Much appreciated.

CC(C)Cc1nc2ccc(C(N)=O)cc2c(-c2ccccc2)c1CN	class 0
NCc1c(Cc2ccccc2)nc2ccc(OCC(N)=O)cc2c1-c1ccccc1	class 0
Cc1ccc(-c2c(CN)c(CC(C)C)nc(C)c2C(=O)OCc2cccc(C(=O)O)c2)cc1	class 0
Cc1ccc(-c2c(CN)c(CC(C)C)nc3ccc(OCC(=O)O)cc23)cc1	class 0
Cc1ccc(-c2c(CCc3nc(C(=O)O)cs3)c(C)nc(CC(C)C)c2CN)cc1	class 1
Cc1ccc(-c2c(CCc3nc(C(N)=O)cs3)c(C)nc(CC(C)C)c2CN)cc1	class 1
CC(C)Cn1c(CN)c(-c2ccccc2)c2cc(Br)cnc2c1=O	class 0
Cc1ccc(-c2c(-c3nc(C(N)=O)cs3)cnc(CC(C)C)c2CN)cc1	class 1
Cc1ccc(-c2c(CN)c(CC(C)C)nc(C)c2C(=O)OCCCC(=O)O)cc1	class 0
CCCCCc1nc2ccc(OCC(N)=O)cc2c(-c2ccccc2)c1CN	class 0
CC(=O)c1csc(-c2cnc(CC(C)C)c(CN)c2-c2ccc(C)cc2)n1	class 1
Cc1ccc(-c2c(CN)c(CC(C)C)nc3ccc(OCCCCC(=O)O)cc23)cc1	class 1

====

# targetUnderTest: Dipeptidyl peptidase 8 (Homo sapiens)
# Sequence (Q6V1X1 whole entry): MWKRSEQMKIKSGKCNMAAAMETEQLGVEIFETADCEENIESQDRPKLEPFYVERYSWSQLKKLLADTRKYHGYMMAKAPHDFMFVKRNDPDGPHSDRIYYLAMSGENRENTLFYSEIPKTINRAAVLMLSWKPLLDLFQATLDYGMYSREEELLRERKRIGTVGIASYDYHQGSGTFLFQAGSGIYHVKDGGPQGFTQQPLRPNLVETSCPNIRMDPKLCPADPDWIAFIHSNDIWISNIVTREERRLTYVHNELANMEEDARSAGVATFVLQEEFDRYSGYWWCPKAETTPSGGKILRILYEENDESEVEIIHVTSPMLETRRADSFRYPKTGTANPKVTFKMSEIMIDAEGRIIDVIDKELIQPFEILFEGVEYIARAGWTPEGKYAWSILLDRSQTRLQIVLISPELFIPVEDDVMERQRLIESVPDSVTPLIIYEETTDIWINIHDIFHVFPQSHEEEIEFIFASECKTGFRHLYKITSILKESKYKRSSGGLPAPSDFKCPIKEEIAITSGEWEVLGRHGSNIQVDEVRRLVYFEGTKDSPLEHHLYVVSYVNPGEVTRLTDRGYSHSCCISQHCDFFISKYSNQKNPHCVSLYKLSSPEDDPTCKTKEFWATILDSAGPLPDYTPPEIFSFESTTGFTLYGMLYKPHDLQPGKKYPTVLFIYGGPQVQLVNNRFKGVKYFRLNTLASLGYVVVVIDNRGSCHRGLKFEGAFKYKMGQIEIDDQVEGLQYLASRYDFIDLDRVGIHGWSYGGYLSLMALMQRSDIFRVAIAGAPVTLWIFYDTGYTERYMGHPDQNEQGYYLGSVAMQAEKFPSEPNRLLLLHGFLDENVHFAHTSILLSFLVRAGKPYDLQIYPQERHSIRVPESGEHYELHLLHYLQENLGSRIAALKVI
# experimentalDetails: Inhibition of FLAG-tagged human DPP8 expressed in 293-F cells pre-incubated for 20 mins before Gly-Pro-pNA substrate addition and measured after 90 mins
measuredQuantity: IC50

Cc1ccc(-c2c(CN)c(CC(C)C)nc(C)c2C(=O)OCc2ccc(C(=O)O)cc2)cc1	> 100 µM
